# Test: Total clearance in Balb/c mouse at 1 mg/kg, iv or 3 mg/kg, po by LC-MS/MS analysis
# Format: ADME, organism-based
# Assay context: in vivo
Outcome measure: clearance

Query: What does the record list as clearance for COc1ncc(-c2cc(OC[C@@H]3CCCN(CCC4CCOCC4)C3)c3cnn(C)c3n2)cc1NS(C)(=O)=O ?
Response: 25.5 mL/min/kg

====

# Test: Aqueous solubility in pH 6.8 solution at 130 uM after 20 hrs by liquid chromatography method
# Assay type: physicochemical
# Assay context: aqueous pH 6.8 solution
Outcome measure: solubility at 20 h, 130 µM

Query: What does the record list as solubility at 20 h, 130 µM for COc1ncc(-c2cc(OC[C@@H]3CCCN(CCC4CCOCC4)C3)c3cnn(C)c3n2)cc1NS(C)(=O)=O ?
Response: ≥ 100 µM
